Test Name: Toxicokinetics of the 7-day tox study
Assay type: in vivo, rats
Condition Set: female, rat, whole blood, po, 10 mg/kg, Day 7, 10 mg/kg oral, Female
Measurement Label: AUC (ng·h/mL)
Response body: numeric value in ng·h/mL, unit text excluded.

Reported AUC for CN1CCN(c2nc(NCCN3CCOCC3)c3nc(Cl)c(NCCN4CCOCC4)nc3n2)CC1 was 2120

----------
Test Name: Toxicokinetics of the 7-day tox study
Assay type: in vivo, rats
Condition Set: male, rat, whole blood, po, 30 mg/kg, Day 1, 30 mg/kg oral, Male
Measurement Label: AUC

Reported AUC for CN1CCN(c2nc(NCCN3CCOCC3)c3nc(Cl)c(NCCN4CCOCC4)nc3n2)CC1 was 4700 ng·h/mL

----------
Test Name: PK/PD study: whole blood JB6121 after 7 days oral dosing
Format: in vivo, Sprague-Dawley rats
Condition Set: Sprague-Dawley, rat, whole blood; 25 mg/kg PO daily x7 days, Day 7; read-out: AUC Extrap
Measurement Label: AUC
Write down the value, and be sure its unit follows.

Reported AUC for CN1CCN(c2nc(NCCN3CCOCC3)c3nc(Cl)c(NCCN4CCOCC4)nc3n2)CC1 was 2770 ng·h/mL

----------
Test Name: Pharmacokinetic study in rats, IV and PO, whole blood (Charles River)
Type: in vivo, Sprague-Dawley rats
Condition Set: male, Sprague-Dawley, whole blood; Rat, PO 10.0 mg/kg
Measurement Label: Tmax (h)
Response body: numeric value in h, unit text excluded.

Reported Tmax for CN1CCN(c2nc(NCCN3CCOCC3)c3nc(Cl)c(NCCN4CCOCC4)nc3n2)CC1 was 3.33

----------
Test Name: PK/PD study: whole blood JB6121 after 7 days oral dosing
Type: in vivo, Sprague-Dawley rats
Condition Set: Sprague-Dawley, rat, whole blood; 1.56 mg/kg PO daily x7 days, Day 7, 2 h
Measurement Label: concentration at 2 h
Write down the value, and be sure its unit follows.

Reported concentration at 2 h for CN1CCN(c2nc(NCCN3CCOCC3)c3nc(Cl)c(NCCN4CCOCC4)nc3n2)CC1 was 3.93 ng/mL

----------
Test Name: PK/PD study: whole blood JB6121 after 7 days oral dosing
Type: in vivo, Sprague-Dawley rats
Condition Set: Sprague-Dawley, rat, whole blood; 1.56 mg/kg PO daily x7 days, Day 7, 5 h
Measurement Label: concentration at 5 h (ng/mL)
Response body: numeric value in ng/mL, unit text excluded.

Reported concentration at 5 h for CN1CCN(c2nc(NCCN3CCOCC3)c3nc(Cl)c(NCCN4CCOCC4)nc3n2)CC1 was 7.76

----------
Test system: hepatocyte
Test Name: Hepatocyte viability assay (CEREP)
Assay type: cell-based
Condition Set: 24 h at 100 μM
Some molecules, each annotated with its measured % Hepatocyte viability 24 h at 100 μM.
Response body: numeric value in %, unit text excluded.

Below, each entry is followed by its recorded % Hepatocyte viability 24 h at 100 μM result.
[[record]]
molecule = "CN1CCN(c2nc(NCCN3CCOCC3)c3ncc(-c4ccccc4)nc3n2)CC1 [JB6059]"
measurement_label = "% Hepatocyte viability 24 h at 100 μM"
reading_unit = "%"
readout_number = 69

[[record]]
molecule = "CN1CCN(c2nc3nc(-c4ccccc4)nc(NCCN4CCOCC4)c3nc2OCCN2CCOCC2)CC1 [JB6116]"
measurement_label = "% Hepatocyte viability 24 h at 100 μM"
reading_unit = "%"
readout_number = 69

[[record]]
molecule = "CCOc1nc2c(NCCN3CCCC3)nc(-c3ccccc3)nc2nc1N1CCN(C)CC1 [JB6131]"
measurement_label = "% Hepatocyte viability 24 h at 100 μM"
reading_unit = "%"
readout_number = 11


Would you kindly look at the next entry?
Reported % Hepatocyte viability 24 h at 100 μM for CN1CCN(c2nc(NCCN3CCOCC3)c3nc(Cl)c(NCCN4CCOCC4)nc3n2)CC1 [JB6121] was 92

----------
Test Name: Toxicokinetics of the 7-day tox study
Format: in vivo, rats
Condition Set: female, rat, whole blood, po, 30 mg/kg, Day 7, 30 mg/kg oral, Female; read-out: T½ (converted)
Measurement Label: half-life (h)
Response body: numeric value in h, unit text excluded.

Reported half-life for CN1CCN(c2nc(NCCN3CCOCC3)c3nc(Cl)c(NCCN4CCOCC4)nc3n2)CC1 [JB6121] was 14.3

----------
Assay Target: hERG (Homo sapiens, UniProt Q12809)
Construct: host or cells: CHO (Chinese hamster ovary)
Sequence (Q12809 whole entry): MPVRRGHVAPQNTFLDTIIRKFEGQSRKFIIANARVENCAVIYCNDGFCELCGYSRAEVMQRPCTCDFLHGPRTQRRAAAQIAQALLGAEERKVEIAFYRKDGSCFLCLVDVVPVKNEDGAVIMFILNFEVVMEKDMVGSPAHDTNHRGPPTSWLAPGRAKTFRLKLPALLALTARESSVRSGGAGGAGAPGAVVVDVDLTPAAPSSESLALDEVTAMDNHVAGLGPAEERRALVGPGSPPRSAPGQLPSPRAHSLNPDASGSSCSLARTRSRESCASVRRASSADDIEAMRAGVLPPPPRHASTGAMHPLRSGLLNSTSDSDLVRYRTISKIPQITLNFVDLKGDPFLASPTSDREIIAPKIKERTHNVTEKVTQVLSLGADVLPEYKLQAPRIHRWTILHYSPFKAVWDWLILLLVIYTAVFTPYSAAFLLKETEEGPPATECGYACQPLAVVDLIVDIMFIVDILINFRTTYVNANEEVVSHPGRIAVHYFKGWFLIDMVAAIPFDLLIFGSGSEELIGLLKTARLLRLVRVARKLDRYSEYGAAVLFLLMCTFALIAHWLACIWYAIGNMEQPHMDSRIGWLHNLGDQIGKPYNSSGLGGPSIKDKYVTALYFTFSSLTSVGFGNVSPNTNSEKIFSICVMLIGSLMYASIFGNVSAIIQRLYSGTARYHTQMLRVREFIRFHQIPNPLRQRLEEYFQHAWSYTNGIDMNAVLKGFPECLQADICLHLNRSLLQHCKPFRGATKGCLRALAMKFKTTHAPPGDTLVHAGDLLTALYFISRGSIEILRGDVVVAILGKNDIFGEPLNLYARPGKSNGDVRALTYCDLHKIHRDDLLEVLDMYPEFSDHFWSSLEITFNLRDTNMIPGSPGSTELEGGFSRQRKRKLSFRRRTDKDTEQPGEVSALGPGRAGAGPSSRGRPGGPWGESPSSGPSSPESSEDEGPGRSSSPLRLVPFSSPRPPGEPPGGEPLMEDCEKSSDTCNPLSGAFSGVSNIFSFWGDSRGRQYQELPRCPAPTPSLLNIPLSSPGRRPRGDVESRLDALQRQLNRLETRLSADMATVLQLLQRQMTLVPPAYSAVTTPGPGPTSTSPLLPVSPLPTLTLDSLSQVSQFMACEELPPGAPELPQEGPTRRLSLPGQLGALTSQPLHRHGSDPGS
Test Name: hERG patch clamp assay (automated, CHO-hERG cells)
Format: cell-based
Condition Set: Table 4b
pIC50: −log10 of the molar value.
Some molecules, each annotated with its measured pIC50.

Below, each entry is followed by its recorded pIC50 result.
[[record]]
line_notation = "C[C@@H]1CN(CCNc2nc3nc(N4CCN(C)CC4)nc(NCCN4C[C@@H](C)O[C@@H](C)C4)c3nc2Cl)C[C@H](C)O1"
result = "< 4.52"

[[record]]
line_notation = "COCCN1CCN(c2nc(NCCN3CCOCC3)c3nc(Cl)c(NCCN4CCOCC4)nc3n2)CC1"
result = "< 4.52"

[[record]]
line_notation = "CCCCNc1nc(NCCN2CCOCC2)c2nc(SCC)c(NCCN3CCOCC3)nc2n1"
result = "> 6.52"

[[record]]
line_notation = "CCOc1nc2c(NCCN3CCOCC3)nc(NCc3ccccc3)nc2nc1NCCN1CCOCC1"
result = 6.52

[[record]]
line_notation = "Clc1nc2c(NCCN3CCOCC3)nc(NCc3ccccc3)nc2nc1NCCN1CCOCC1"
result = 6.00


Reported pIC50 for CN1CCN(c2nc(NCCN3CCOCC3)c3ncc(-c4ccccc4)nc3n2)CC1 was 5.30

Reported pIC50 for CCOc1nc2c(NCCN3CCCC3)nc(-c3ccccc3)nc2nc1N1CCN(C)CC1 was > 5.00

Reported pIC50 for CCCCNc1nc(NCCN2CCOCC2)c2nc(Cl)c(NCCN3CCOCC3)nc2n1 was > 6.00

Reported pIC50 for CN1CCN(c2nc(NCCN3CCOCC3)c3nc(Cl)c(NCCN4CCOCC4)nc3n2)CC1 was < 4.52

----------
Test Name: Toxicokinetics of the 7-day tox study
Format: in vivo, rats
Condition Set: male, rat, whole blood, po, 30 mg/kg, Day 7, 30 mg/kg oral, Male
Measurement Label: Cmax (ng/mL)
Response body: numeric value in ng/mL, unit text excluded.

Reported Cmax for CN1CCN(c2nc(NCCN3CCOCC3)c3nc(Cl)c(NCCN4CCOCC4)nc3n2)CC1 [JB6121] was 805

----------
Test Name: Aqueous solubility (CEREP)
Type: physicochemical
Condition Set: simulated gastric fluid; read-out: Aqueous Solubility, simulated Gastric Fluid
Measurement Label: solubility

Reported solubility for CN1CCN(c2nc(NCCN3CCOCC3)c3nc(Cl)c(NCCN4CCOCC4)nc3n2)CC1 [JB6121] was > 200 µM

----------
Test Name: Pharmacokinetic study in rats, IV and PO, whole blood (Charles River)
Format: in vivo, Sprague-Dawley rats
Condition Set: male, Sprague-Dawley, whole blood; Rat, PO 10.0 mg/kg; read-out: Bioavailability
Procedure: A pharmacokinetic study was performed by Charles River Wilmington Mass., in rats and the doses where 2 mg/kg IV and 10 mg/kg PO and whole blood levels were measured for 72 h. The calculated pharmacokinetic parameters for 24 h are given below in Table 8. Six (6) male Sprague-Dawley rats were selected from the Testing Facility's rodent colony. […]
Measurement Label: bioavailability (%)
Response body: numeric value in %, unit text excluded.

Reported bioavailability for CN1CCN(c2nc(NCCN3CCOCC3)c3nc(Cl)c(NCCN4CCOCC4)nc3n2)CC1 was 20.6

----------
Test Name: Toxicokinetics of the 7-day tox study
Type: in vivo, rats
Condition Set: female, rat, whole blood, iv, 5 mg/kg, Day 1, 5 mg/kg I.V., Female; read-out: T½ (converted)
Experimental: A 7-day non-GLP tox study was performed in rats. […] The following parameters and end points were evaluated in this study: clinical signs, body weights, body weight changes, food consumption, clinical pathology parameters (hematology, coagulation, clinical chemistry, and urinalysis), toxicokinetic parameters, gross necropsy findings, organ weights, and histopathologic examinations. Clinical signs and body weight changes in the TK animals were generally similar to the main toxicology phase animals. […]
Measurement Label: half-life (h)
Response body: numeric value in h, unit text excluded.

Reported half-life for CN1CCN(c2nc(NCCN3CCOCC3)c3nc(Cl)c(NCCN4CCOCC4)nc3n2)CC1 was 10.8

----------
Some molecules, each annotated with its measured IC50.
Assay Target: TLR9 (Homo sapiens, UniProt Q9NR96)
Construct: PBMCs were isolated from unpurified buffy coat from healthy human donors; host or cells: primary human PBMCs
Sequence (Q9NR96 26-1032): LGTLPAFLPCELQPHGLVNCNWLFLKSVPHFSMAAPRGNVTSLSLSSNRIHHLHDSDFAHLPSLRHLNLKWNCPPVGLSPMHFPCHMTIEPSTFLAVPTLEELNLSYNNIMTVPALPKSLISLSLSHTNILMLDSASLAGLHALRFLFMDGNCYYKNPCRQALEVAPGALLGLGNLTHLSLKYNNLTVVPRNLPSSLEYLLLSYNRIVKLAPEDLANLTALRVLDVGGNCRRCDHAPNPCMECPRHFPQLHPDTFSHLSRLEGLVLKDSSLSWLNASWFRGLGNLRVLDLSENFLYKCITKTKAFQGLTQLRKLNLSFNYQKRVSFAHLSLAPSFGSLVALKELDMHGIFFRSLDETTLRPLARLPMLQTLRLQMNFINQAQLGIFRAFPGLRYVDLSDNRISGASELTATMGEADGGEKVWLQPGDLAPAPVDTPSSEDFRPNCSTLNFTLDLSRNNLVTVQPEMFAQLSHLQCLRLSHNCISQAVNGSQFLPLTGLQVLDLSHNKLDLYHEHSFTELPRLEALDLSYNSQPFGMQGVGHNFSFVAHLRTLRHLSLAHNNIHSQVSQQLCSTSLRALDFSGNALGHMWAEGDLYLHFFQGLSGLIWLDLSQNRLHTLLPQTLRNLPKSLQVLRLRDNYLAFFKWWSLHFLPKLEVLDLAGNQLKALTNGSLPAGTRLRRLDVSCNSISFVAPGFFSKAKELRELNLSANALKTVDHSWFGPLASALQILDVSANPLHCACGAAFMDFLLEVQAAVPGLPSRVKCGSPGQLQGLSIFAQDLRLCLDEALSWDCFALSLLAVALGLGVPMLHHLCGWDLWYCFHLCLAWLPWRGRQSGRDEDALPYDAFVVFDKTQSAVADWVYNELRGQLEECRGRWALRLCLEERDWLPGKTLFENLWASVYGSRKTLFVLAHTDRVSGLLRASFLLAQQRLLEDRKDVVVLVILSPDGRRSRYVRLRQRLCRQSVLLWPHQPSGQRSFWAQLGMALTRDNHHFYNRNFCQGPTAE
Test Name: TLR9 antagonist assay in human PBMCs (ODN2395, IFNα ELISA)
Assay type: cell-based
Condition Set: human PBMC, 0.25 μM ODN2395, IFNα readout
Response body: numeric value in µM, unit text excluded.

[[record]]
line_notation = "CCOc1nc2c(NCCN3CCOCC3)nc(NCc3ccccc3)nc2nc1NCCN1CCOCC1"
reading_unit = "µM"
readout_number = 0.114

[[record]]
line_notation = "CCCCNc1nc(NCCN2CCOCC2)c2nc(Cl)c(NCCN3CCOCC3)nc2n1"
reading_unit = "µM"
readout_number = 0.101

[[record]]
line_notation = "CN1CCN(c2nc(NCCN3CCOCC3)c3nc(Cl)c(NCCN4CCOCC4)nc3n2)CC1"
reading_unit = "µM"
readout_number = 0.146


Reported IC50 for CCCCNc1nc(NCCN2CCOCC2)c2nc(SCC)c(NCCN3CCOCC3)nc2n1 was 0.061
